target or system: T1, factor VIIIa A1/A3C1C2 dimer, wild type (human, UniProt P00451 20-391; P00451 1709-2351)
T1 sequence 1: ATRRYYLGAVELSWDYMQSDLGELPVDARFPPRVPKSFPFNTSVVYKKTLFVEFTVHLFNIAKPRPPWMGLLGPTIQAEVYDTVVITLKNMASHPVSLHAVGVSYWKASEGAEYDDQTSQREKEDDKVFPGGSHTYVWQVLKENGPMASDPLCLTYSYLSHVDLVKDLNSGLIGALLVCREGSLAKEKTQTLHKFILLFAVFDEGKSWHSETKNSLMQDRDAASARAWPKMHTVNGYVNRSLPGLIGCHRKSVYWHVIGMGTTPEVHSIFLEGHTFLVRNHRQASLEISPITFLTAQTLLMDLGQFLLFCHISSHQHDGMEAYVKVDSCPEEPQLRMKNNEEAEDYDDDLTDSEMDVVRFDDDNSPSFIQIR
T1 sequence 2: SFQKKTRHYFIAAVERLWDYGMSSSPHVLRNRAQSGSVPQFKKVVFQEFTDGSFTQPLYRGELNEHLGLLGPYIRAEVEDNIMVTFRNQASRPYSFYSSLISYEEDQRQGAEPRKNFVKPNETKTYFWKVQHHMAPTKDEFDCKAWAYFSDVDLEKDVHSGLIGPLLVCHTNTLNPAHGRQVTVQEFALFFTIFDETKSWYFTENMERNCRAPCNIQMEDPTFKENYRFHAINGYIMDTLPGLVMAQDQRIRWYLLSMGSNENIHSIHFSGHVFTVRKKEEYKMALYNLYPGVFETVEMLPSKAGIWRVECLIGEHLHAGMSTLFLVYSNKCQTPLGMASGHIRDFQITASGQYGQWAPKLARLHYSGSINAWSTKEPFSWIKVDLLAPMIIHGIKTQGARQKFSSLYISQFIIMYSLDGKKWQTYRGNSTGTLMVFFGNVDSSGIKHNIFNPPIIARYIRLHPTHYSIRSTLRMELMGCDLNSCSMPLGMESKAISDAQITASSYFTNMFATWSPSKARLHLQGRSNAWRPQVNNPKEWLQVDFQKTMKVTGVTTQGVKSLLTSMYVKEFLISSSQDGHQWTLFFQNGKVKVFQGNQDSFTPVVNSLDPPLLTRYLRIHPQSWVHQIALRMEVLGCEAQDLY
test protocol: cell-based or functional assay
value kind: Factor VIIIa decay rate relative to wild type, FIXa (+)

{"binder": "factor VIIIa A2 subunit, S654A (other) SVAKKHPKTWVHYIAAEEEDWDYAPLVLAPDDRSYKSQYLNNGPQRIGRKYKKVRFMAYTDETFKTREAIQHESGILGPLLYGEVGDTLLIIFKNQASRPYNIYPHGITDVRPLYSRRLPKGVKHLKDFPILPGEIFKYKWTVTVEDGPTKSDPRCLTRYYSSFVNMERDLASGLIGPLLICYKESVDQRGNQIMSDKRNVILFSVFDENRSWYLTENIQRFLPNPAGVQLEDPEFQASNIMHSINGYVFDSLQLSVCLHEVAYWYILSIGAQTDFLSVFFAGYTFKHKMVYEDTLTLFPFSGETVFMSMENPGLWILGCHNSDFRNRGMTALLKVSSCDKNTGDYYEDSYEDISAYLLSKNNAIEPR", "value measured": "1.28 relative to wild type"}
{"binder": "factor VIIIa A2 subunit, N538A (other) SVAKKHPKTWVHYIAAEEEDWDYAPLVLAPDDRSYKSQYLNNGPQRIGRKYKKVRFMAYTDETFKTREAIQHESGILGPLLYGEVGDTLLIIFKNQASRPYNIYPHGITDVRPLYSRRLPKGVKHLKDFPILPGEIFKYKWTVTVEDGPTKSDPRCLTRYYSSFVAMERDLASGLIGPLLICYKESVDQRGNQIMSDKRNVILFSVFDENRSWYLTENIQRFLPNPAGVQLEDPEFQASNIMHSINGYVFDSLQLSVCLHEVAYWYILSIGAQTDFLSVFFSGYTFKHKMVYEDTLTLFPFSGETVFMSMENPGLWILGCHNSDFRNRGMTALLKVSSCDKNTGDYYEDSYEDISAYLLSKNNAIEPR", "value measured": "1.28 relative to wild type"}

Qu. Given factor VIIIa A2 subunit, D666A (other) SVAKKHPKTWVHYIAAEEEDWDYAPLVLAPDDRSYKSQYLNNGPQRIGRKYKKVRFMAYTDETFKTREAIQHESGILGPLLYGEVGDTLLIIFKNQASRPYNIYPHGITDVRPLYSRRLPKGVKHLKDFPILPGEIFKYKWTVTVEDGPTKSDPRCLTRYYSSFVNMERDLASGLIGPLLICYKESVDQRGNQIMSDKRNVILFSVFDENRSWYLTENIQRFLPNPAGVQLEDPEFQASNIMHSINGYVFDSLQLSVCLHEVAYWYILSIGAQTDFLSVFFSGYTFKHKMVYEATLTLFPFSGETVFMSMENPGLWILGCHNSDFRNRGMTALLKVSSCDKNTGDYYEDSYEDISAYLLSKNNAIEPR , state its recorded Factor VIIIa decay rate relative to wild type, FIXa (+).
Ans. 4.83 relative to wild type
